test system: GM1 production in Jurkat cells; test: cells; format: cell-based; conditions: Homo sapiens, Jurkat, 72 h
I'd appreciate it if you could supply log10 IC50 values for the items below.
A difference of one corresponds to tenfold IC50; all values are log10 with IC50 in nM.

Solved cases below.
molecule | log10 IC50
CC1(C)CC(NC(=O)O[C@@H]2CN3CCC2CC3)c2ccc(-c3ccccc3OC(F)(F)F)cc21 (stereo partly shown) | 1.93
COc1ccc(-c2cc3c(cc2F)C(NC(=O)O[C@@H]2CN4CCC2CC4)C(C)(C)C3)c(Cl)c1 (stereo partly shown) | 1.47
CCCCOc1cccc(-c2cc3c(cc2OC)C(NC(=O)O[C@@H]2CN4CCC2CC4)C(C)(C)C3)c1 (stereo partly shown) | 1.33
CCCCOc1c(C)cc(-c2ccc3c(c2)CC(CC)(CC)C3NC(=O)O[C@@H]2CN3CCC2CC3)cc1C (stereo partly shown) | 0.99

Hi team, please reply with log10 IC50 for each item in this list.
1. CCCCOc1ccc(F)cc1-c1ccc2c(c1)CC(C)(C)C2NC(=O)O[C@@H]1CN2CCC1CC2 (stereo partly shown)
2. COCCOc1ccc(-c2ccc3c(c2)C(NC(=O)O[C@@H]2CN4CCC2CC4)C(C)(C)C3)cc1 (stereo partly shown)
3. CCCCOc1cccc(-c2cc3c(cc2F)C(NC(=O)O[C@@H]2CN4CCC2CC4)C(C)(C)C3)c1 (stereo partly shown)
4. CN(C)c1cc(-c2ccc3c(c2)CC(C)(C)C3NC(=O)O[C@@H]2CN3CCC2CC3)ccc1F (stereo partly shown)
5. O=C(NC1CCc2cc(-c3cc(F)cc(F)c3)ccc21)O[C@@H]1CN2CCC1CC2 (stereo partly shown)
6. CCOc1ccc(-c2ccc3c(c2)CC(C)(C)C3NC(=O)O[C@@H]2CN3CCC2CC3)cn1 (stereo partly shown)
7. COc1cc2c(cc1-c1ccc(OCC3CC3)nc1)CC(C)(C)C2NC(=O)O[C@@H]1CN2CCC1CC2 (stereo partly shown)

result:
1: 1.58; 2: 1.76; 3: 1.20; 4: 1.57; 5: 1.31; 6: 1.54; 7: 1.03

Hi team, please reply with log10 IC50 for each item in this list.
1. Cc1ccc(-c2ccc3c(c2)C(NC(=O)O[C@@H]2CN4CCC2CC4)C(C)(C)C3)cc1 (stereo partly shown)
2. CC1(C)Cc2ccc(-c3ccc(F)cc3)cc2C1NC(=O)O[C@@H]1CN2CCC1CC2 (stereo partly shown)

result:
2.05
1.79

Hi team, please reply with log10 IC50 for each item in this list.
1. CC1(C)Cc2cc(-c3cccc(F)c3)c(F)cc2C1NC(=O)O[C@@H]1CN2CCC1CC2 (stereo partly shown)
2. COc1ccc(F)c(-c2ccc3c(c2)CC(C)(C)C3NC(=O)O[C@@H]2CN3CCC2CC3)c1 (stereo partly shown)
3. COc1cccc(-c2ccc3c(c2)CC(C)(C)C3NC(=O)O[C@@H]2CN3CCC2CC3)c1OC (stereo partly shown)
4. CC1(C)Cc2cc(-c3ccc(N4CCOCC4)cc3)ccc2C1NC(=O)O[C@@H]1CN2CCC1CC2 (stereo partly shown)

result:
1.59
1.49
1.19
1.48

Hi team, please reply with log10 IC50 for each item in this list.
1. O=C(NC1CCc2cc(-c3ccc(F)cc3)ccc21)O[C@@H]1CN2CCC1CC2 (stereo partly shown)
2. CC1(C)Cc2ccc(-c3ccccc3F)cc2C1NC(=O)O[C@@H]1CN2CCC1CC2 (stereo partly shown)
3. O=C(NC1CCc2cc(-c3cc(F)c(F)cc3F)ccc21)O[C@@H]1CN2CCC1CC2 (stereo partly shown)
4. CCCCOc1ccc(-c2cc3c(cc2OC)C(NC(=O)O[C@@H]2CN4CCC2CC4)C(C)(C)C3)cc1 (stereo partly shown)
5. CC1(C)Cc2ccc(-c3ccccc3C(F)(F)F)cc2C1NC(=O)O[C@@H]1CN2CCC1CC2 (stereo partly shown)

result:
1: 2.14; 2: 1.70; 3: 2.10; 4: 0.76; 5: 2.21
